Provenance of the data: ChEMBL document CHEMBL1268899

SYSTEM_NAME: Polyunsaturated fatty acid 5-lipoxygenase (Homo sapiens, UniProt P09917)
Sequence (P09917 whole entry): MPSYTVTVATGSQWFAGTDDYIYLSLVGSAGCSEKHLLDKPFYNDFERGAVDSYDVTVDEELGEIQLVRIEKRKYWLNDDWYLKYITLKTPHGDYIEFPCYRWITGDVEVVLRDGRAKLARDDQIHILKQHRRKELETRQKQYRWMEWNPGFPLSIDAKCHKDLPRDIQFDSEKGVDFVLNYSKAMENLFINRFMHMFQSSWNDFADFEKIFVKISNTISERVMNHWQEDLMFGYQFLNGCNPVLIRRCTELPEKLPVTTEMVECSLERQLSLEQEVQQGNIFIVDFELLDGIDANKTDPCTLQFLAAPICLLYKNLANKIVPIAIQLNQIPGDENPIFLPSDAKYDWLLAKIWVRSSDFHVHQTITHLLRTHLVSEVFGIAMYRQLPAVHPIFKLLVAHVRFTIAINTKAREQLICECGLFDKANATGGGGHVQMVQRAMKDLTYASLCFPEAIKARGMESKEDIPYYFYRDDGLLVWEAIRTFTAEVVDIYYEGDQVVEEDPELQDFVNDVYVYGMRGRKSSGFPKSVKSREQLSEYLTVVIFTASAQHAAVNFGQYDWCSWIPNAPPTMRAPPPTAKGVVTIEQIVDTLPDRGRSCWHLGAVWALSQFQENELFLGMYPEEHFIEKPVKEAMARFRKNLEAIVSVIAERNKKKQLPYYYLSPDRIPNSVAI
pIC50: −log10 of the molar value.
QUANTITY: pIC50

stdin: Looking for the measured pIC50 of `O=C(OCC#CCSc1nnc(-c2ccc(Cl)cc2)o1)c1ccc(F)cc1` , can you help?
stdout: < 4.12

stdin: Try this molecule next: `O=C(OCC#CCSc1nnc(-c2cccc3ccccc23)o1)c1ccc(OC(F)(F)F)cc1`
stdout: < 4.82

stdin: Please do the same for `O=C(OCC#CCSc1nnc(-c2cccc3ccccc23)o1)c1cccc(F)c1` as well.
stdout: < 4.30

stdin: Continue with `O=C(OCC#CCSc1nnc(-c2cccc3ccccc23)o1)c1cccs1`
stdout: < 4.82
